Tested on: U2OS
Experiment: Multiplex assay against U2OS
Type: toxicity, cell-based
Conditions: human, 12 h, 10 µM, compound concentration 10 uM, replicate 2
// bucketize Population Tubulin-Different-Phenotype (%): range A (below 30%), range B (30% to below 80%), range C (80% or more)

Answered examples (3):
Compound | Label class
C=CC(=O)Nc1cc(-n2c(=O)ccc3cnc4ccc(-c5ccc(NS(C)(=O)=O)cc5)cc4c32)ccc1C | range B
Cc1c(P(=S)(c2ccccc2)c2ccccc2)n2ccccc2[n+]1C/C=C/c1ccccc1.[Br-] | range C
CC(C)C[C@H](NC(=O)[C@H](Cc1ccccc1)NC(=O)CNC(=O)CNC(=O)[C@@H](N)Cc1ccc(O)cc1)C(=O)O [ENKEPHALIN] | range A

Returns: class label. Input: CCOc1ccn(-c2ccc(F)cc2)c(=O)c1C(=O)Nc1ccc(Oc2ccnc(N)c2Cl)c(F)c1 [BMS-777607]
range B

Which of the defined bands does the recorded Population Tubulin-Different-Phenotype (%) of c1ccc(-c2oc3ncnc(NC[C@@H]4CCCO4)c3c2-c2ccccc2)cc1 sit within?
range C

Hey, which category is CCCCN(CC)c1nc(C)nc2c1c(C)cn2-c1c(C)cc(C)cc1C.Cl in, do you know?
range A

Band assignment needed for Cl.NC[C@@H]1O[C@H](C23CC4CC(CC(C4)C2)C3)Cc2c1ccc(O)c2O please.
range A

For this compound, which bin applies? CN1C(=O)[C@@H](NC(=O)c2cc3ccccc3[nH]2)N=C(c2ccccc2)c2ccccc21 [DEVAZEPIDE]
range B

Bin? CC(/C=C1\SC(=S)N(CCCC(=O)Nc2ccc(C(=O)O)c(O)c2)C1=O)=C\c1ccccc1
range A

Please let me know in which category the item CCCc1cc(C)[nH]c(=O)c1CNC(=O)c1cc(-c2ccc(N3CCN(C(C)C)CC3)nc2)cc2c1cnn2C(C)C belongs.
range C

Category of Cl.Cn1c2c(c3ccc(Cl)c(Cl)c31)C(C#N)C1(CCNCC1)NC2=O (configuration not stated) , please.
range C

Sort into band: N#Cc1cccc(C(=O)Nc2cc(-c3ccccc3)nn2-c2ccccc2)c1
range C

Using the reported Population Tubulin-Different-Phenotype (%), which band applies to CC(Cc1ccc(O)c(O)c1)C(C)Cc1ccc(O)c(O)c1 (configuration not stated) [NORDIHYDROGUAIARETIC ACID] ?
range B

Class? Entry: CC[C@H](Nc1ncnc2[nH]cnc12)c1nc2cccc(F)c2c(=O)n1-c1ccccc1 [IDELALISIB]
range A

Which category fits this record: CC(C)[C@H](CO)Nc1nc(Nc2cccc(Cl)c2)c2ncn(C(C)C)c2n1 [PURVALANOLA]
range C

Tag the class for Cc1c(Nc2ccc(S(=O)(=O)N3CCN(C)CC3)cc2F)nc2ccc(Nc3cnn(C4CC4)c3)cn2c1=O
range A

Categorize the following entry: Oc1cccc(-c2nc(N3CCOCC3)c3oc4ncccc4c3n2)c1 [PI-103]
range C

* * *

Exercise: for every item that follows, state its recorded Population Mitochondria Different-Phenotype (%).
Tested on: HEK-293T
Experiment: Multiplex assay against HEK293T
Type: toxicity, cell-based
Conditions: human, 24 h, 10 µM, compound concentration 10 uM, replicate 2
Give bare numbers, in %.

Check out these entries, answers already filled in.
Molecule | Quantity unit | Endpoint result
Cc1c(Nc2ccc(S(=O)(=O)N3CCN(C)CC3)cc2F)nc2ccc(Nc3cnn(C4CC4)c3)cn2c1=O | % | 2
CC(Cc1ccc(O)c(O)c1)C(C)Cc1ccc(O)c(O)c1 (configuration not stated) [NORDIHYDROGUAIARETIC ACID] | % | 4
Cl.NC[C@@H]1O[C@H](C23CC4CC(CC(C4)C2)C3)Cc2c1ccc(O)c2O | % | 12
Cl.Cn1c2c(c3ccc(Cl)c(Cl)c31)C(C#N)C1(CCNCC1)NC2=O (configuration not stated) | % | 25
CC(C)[C@H](CO)Nc1nc(Nc2cccc(Cl)c2)c2ncn(C(C)C)c2n1 [PURVALANOLA] | % | 94
CC(/C=C1\SC(=S)N(CCCC(=O)Nc2ccc(C(=O)O)c(O)c2)C1=O)=C\c1ccccc1 | % | 5
CC[C@@H]1C(=O)N(C)c2cnc(Nc3ccc(C(=O)NC4CCN(C)CC4)cc3OC)nc2N1C1CCCC1 [BI-2536] | % | 59
CCCCN(CC)c1nc(C)nc2c1c(C)cn2-c1c(C)cc(C)cc1C.Cl | % | 73
c1ccc(-c2oc3ncnc(NC[C@@H]4CCCO4)c3c2-c2ccccc2)cc1 | % | 75
Cc1c(P(=S)(c2ccccc2)c2ccccc2)n2ccccc2[n+]1C/C=C/c1ccccc1.[Br-] | % | 72

For every record below, what is its Population Mitochondria Different-Phenotype (%)?
1. C[C@@H](Oc1cc(-n2cnc3ccc(CN4CCN(C)CC4)cc32)sc1C(N)=O)c1ccccc1C(F)(F)F [GSK-461364]
2. Oc1cccc(-c2nc(N3CCOCC3)c3oc4ncccc4c3n2)c1 [PI-103]
3. CCOc1ccn(-c2ccc(F)cc2)c(=O)c1C(=O)Nc1ccc(Oc2ccnc(N)c2Cl)c(F)c1 [BMS-777607]

[97, 70, 1]

* * *

Test system: HEK-293T
Assay: Multiplex assay against HEK293T
Format: toxicity, cell-based
Settings: human, 48 h, 10 µM, compound concentration 10 uM, replicate 1
Please go through the items and note down their Population Pyknosed Nuclei (%).
Give bare numbers, in %.

Molecule | Property | Quantity unit | Endpoint result
Cl.NC[C@@H]1O[C@H](C23CC4CC(CC(C4)C2)C3)Cc2c1ccc(O)c2O | Population Pyknosed Nuclei (%) | % | 67
c1ccc(-c2oc3ncnc(NC[C@@H]4CCCO4)c3c2-c2ccccc2)cc1 | Population Pyknosed Nuclei (%) | % | 57
CCCCCNC(=N)N/N=C/c1c[nH]c2ccc(OC)cc12.O=C(O)/C=C\C(=O)O [TEGASEROD MALEATE] | Population Pyknosed Nuclei (%) | % | 63

Please report Population Pyknosed Nuclei (%) for every entry that follows.
1. CC(C)[C@H](CO)Nc1nc(Nc2cccc(Cl)c2)c2ncn(C(C)C)c2n1 [PURVALANOLA]
2. CN(c1cc(C(F)(F)F)nc(OCCC(=O)O)n1)c1cccc2c1CCC2
3. C=CC(=O)Nc1cc(-n2c(=O)ccc3cnc4ccc(-c5ccc(NS(C)(=O)=O)cc5)cc4c32)ccc1C
4. CN1C(=O)[C@@H](NC(=O)c2cc3ccccc3[nH]2)N=C(c2ccccc2)c2ccccc21 [DEVAZEPIDE]
5. CCCCN(CC)c1nc(C)nc2c1c(C)cn2-c1c(C)cc(C)cc1C.Cl
6. CC(Cc1ccc(O)c(O)c1)C(C)Cc1ccc(O)c(O)c1 (stereo unspecified) [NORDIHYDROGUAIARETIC ACID]
7. CC(/C=C1\SC(=S)N(CCCC(=O)Nc2ccc(C(=O)O)c(O)c2)C1=O)=C\c1ccccc1

1: 41; 2: 27; 3: 56; 4: 69; 5: 19; 6: 28; 7: 37

* * *

Test system: Fibroblast
Assay: Multiplex assay against human fibroblast
Assay type: toxicity, cell-based
Settings: 12 h, 1 µM, compound concentration 1 uM, replicate 2
Property: Total Cell Count
One number for each entry.

Field: example entries. Status: answers known.
Structure notation | Total Cell Count
N#CCNC(=O)c1ccc(-c2ccnc(Nc3ccc(N4CCOCC4)cc3)n2)cc1 | 3119
Cc1ccc(NC(=O)Nc2cc(C(F)(F)F)ccc2F)cc1Nc1ccc2c(c1)NC(=O)/C2=C\c1ccc[nH]1 | 61
CC(/C=C1\SC(=S)N(CCCC(=O)Nc2ccc(C(=O)O)c(O)c2)C1=O)=C\c1ccccc1 | 65
CCOC(=O)CCNc1cc(N2CCc3ccccc3CC2)nc(-c2ccccn2)n1 | 63
Cc1c(P(=S)(c2ccccc2)c2ccccc2)n2ccccc2[n+]1C/C=C/c1ccccc1.[Br-] | 93
CCCc1cc(C)[nH]c(=O)c1CNC(=O)c1cc(-c2ccc(N3CCN(C(C)C)CC3)nc2)cc2c1cnn2C(C)C | 56

Now, please, on to the next molecule.
Given Cc1c(Nc2ccc(S(=O)(=O)N3CCN(C)CC3)cc2F)nc2ccc(Nc3cnn(C4CC4)c3)cn2c1=O , respond with its Total Cell Count.
62

* * *

So I've got a bunch of compounds here, and I need their Population Mitochondria Different-Phenotype (%) values.
System: Fibroblast
Assay: Multiplex assay against human fibroblast
Assay type: toxicity, cell-based
Conditions: 48 h, 10 µM, compound concentration 10 uM, replicate 1
One number for each entry, in %.

Example cases with answers are listed next.
Compound | Quantity unit | Endpoint result
CN1C(=O)[C@@H](NC(=O)c2cc3ccccc3[nH]2)N=C(c2ccccc2)c2ccccc21 [DEVAZEPIDE] | % | 12
CC(/C=C1\SC(=S)N(CCCC(=O)Nc2ccc(C(=O)O)c(O)c2)C1=O)=C\c1ccccc1 | % | 13
CN(c1cc(C(F)(F)F)nc(OCCC(=O)O)n1)c1cccc2c1CCC2 | % | 3
CC(C)[C@H](CO)Nc1nc(Nc2cccc(Cl)c2)c2ncn(C(C)C)c2n1 [PURVALANOLA] | % | 79
C[C@@H](Oc1cc(-n2cnc3ccc(CN4CCN(C)CC4)cc32)sc1C(N)=O)c1ccccc1C(F)(F)F [GSK-461364] | % | 45
c1ccc(-c2oc3ncnc(NC[C@@H]4CCCO4)c3c2-c2ccccc2)cc1 | % | 55
N#CCNC(=O)c1ccc(-c2ccnc(Nc3ccc(N4CCOCC4)cc3)n2)cc1 [MOMELOTINIB] | % | 9
Cc1c(P(=S)(c2ccccc2)c2ccccc2)n2ccccc2[n+]1C/C=C/c1ccccc1.[Br-] | % | 85

Answer with reported Population Mitochondria Different-Phenotype (%) of CCCCN(CC)c1nc(C)nc2c1c(C)cn2-c1c(C)cc(C)cc1C.Cl
18
